# target_under_test: MCR-1 (Homo sapiens, UniProt Q01726)
# Construct: expressed in transfected cells; host or cells: HEK 293
# Sequence (Q01726 whole entry): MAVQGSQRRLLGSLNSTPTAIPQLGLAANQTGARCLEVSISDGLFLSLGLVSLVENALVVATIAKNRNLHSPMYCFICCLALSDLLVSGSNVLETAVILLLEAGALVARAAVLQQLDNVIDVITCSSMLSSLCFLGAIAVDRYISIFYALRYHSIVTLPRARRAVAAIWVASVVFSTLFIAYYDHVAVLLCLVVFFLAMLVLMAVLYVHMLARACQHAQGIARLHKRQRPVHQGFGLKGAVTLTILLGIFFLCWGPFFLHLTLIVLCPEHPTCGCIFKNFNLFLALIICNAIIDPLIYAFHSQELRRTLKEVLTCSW
# assay_details: Melanocortin receptor binding assay, competition with 125I-HP 467, HEK 293 cells expressing hMCR-1
# conditions_used: 10 μM isoquinoline compound, HEK 293 cells expressing MCR-1, duplicate 1
For each of the compounds below, state its % Disp. of 125I-HP 467 (first of duplicate).
Answer in %, number only, no unit symbol.

(Q) Supply reported % Disp. of 125I-HP 467 (first of duplicate) belonging to this compound: CNC(CN)CCCCN1Cc2ccccc2C(CNC2CCCCC2)C1c1ccc(OC)c2ccccc12 (mixture of isomers) [TRG 2405-248]
(A) 56.5

(Q) Supply reported % Disp. of 125I-HP 467 (first of duplicate) belonging to this compound: CNC(CN)CCCCN1Cc2ccccc2C(CNC2CCCCC2)C1c1ccccc1F (centres unmarked) [TRG 2405-196]
(A) 69.1

(Q) Supply reported % Disp. of 125I-HP 467 (first of duplicate) belonging to this compound: CNC(CN)CCCCN1Cc2ccccc2C(CNC2CCCCC2)C1c1ccc(C(C)C)cc1 (centres unmarked) [TRG 2405-247]
(A) 83

(Q) Supply reported % Disp. of 125I-HP 467 (first of duplicate) belonging to this compound: CNC(CN)CCCCN1Cc2ccccc2C(CNC2CCCCC2)C1c1cc(C)c(O)c(C)c1 (centres unmarked) [TRG 2405-212]
(A) 54.8

(Q) Supply reported % Disp. of 125I-HP 467 (first of duplicate) belonging to this compound: CNC(CN)CCCCN1Cc2ccccc2C(CNC2CCCCC2)C1c1cc(C(F)(F)F)cc(C(F)(F)F)c1 (centres unmarked) [TRG 2405-208]
(A) 79.5

(Q) Supply reported % Disp. of 125I-HP 467 (first of duplicate) belonging to this compound: CNC(CN)CCCCN1Cc2ccccc2C(CNC2CCCCC2)C1c1cccnc1 (centres unmarked) [TRG 2405-231]
(A) 25

(Q) Supply reported % Disp. of 125I-HP 467 (first of duplicate) belonging to this compound: CNC(CN)CCCCN1Cc2ccccc2C(CNC2CCCCC2)C1c1ccc(-c2ccccc2)cc1 (centres unmarked) [TRG 2405-241]
(A) 89.5

(Q) Supply reported % Disp. of 125I-HP 467 (first of duplicate) belonging to this compound: CNC(CN)CCCCN1Cc2ccccc2C(CNC2CCCCC2)C1c1ccc(Oc2ccccc2)cc1 (centres unmarked) [TRG 2405-252]
(A) 95.1

(Q) Supply reported % Disp. of 125I-HP 467 (first of duplicate) belonging to this compound: CNC(CN)CCCCN1Cc2ccccc2C(CNC2CCCCC2)C1c1ccc(Br)o1 (centres unmarked) [TRG 2405-269]
(A) 55.9

(Q) Supply reported % Disp. of 125I-HP 467 (first of duplicate) belonging to this compound: CNC(CN)CCCCN1Cc2ccccc2C(CNC2CCCCC2)C1c1ccc(N(C)C)cc1 (centres unmarked) [TRG 2405-235]
(A) 64.2

(Q) Supply reported % Disp. of 125I-HP 467 (first of duplicate) belonging to this compound: CNC(CN)CCCCN1Cc2ccccc2C(CNC2CCCCC2)C1c1ccnc2ccccc12 (centres unmarked) [TRG 2405-255]
(A) 29.2

(Q) Supply reported % Disp. of 125I-HP 467 (first of duplicate) belonging to this compound: CNC(CN)CCCCN1Cc2ccccc2C(CNC2CCCCC2)C1c1cccc(OC)c1 (centres unmarked) [TRG 2405-225]
(A) 69.8

(Q) Supply reported % Disp. of 125I-HP 467 (first of duplicate) belonging to this compound: CNC(CN)CCCCN1Cc2ccccc2C(CNC2CCCCC2)C1c1ccc2c(c1)OCCO2 (mixture of isomers) [TRG 2405-183]
(A) 58.9

(Q) Supply reported % Disp. of 125I-HP 467 (first of duplicate) belonging to this compound: CNC(CN)CN1Cc2ccccc2C(CNC2CCCCC2)C1c1ccc(S(C)(=O)=O)cc1 (centres unmarked) [TRG 2405-177]
(A) 39

The origin of these recorded values is patent US6608082B1.
